# TEST PROTOCOL: photoluminescence quantum yield (fraction); solvent given as SMILES
# EXPERIMENTAL SETUP: in C1CCOC1
METRIC NAME: photoluminescence quantum yield

molecule=CN(C)c1ccc(/C=C/c2ccc(-c3cc(-c4ccccn4)nc(-c4ccccn4)c3)cc2)cc1 data_value=0.54
molecule=CN(C)c1ccc(-c2cc(=O)c3ccccc3o2)cc1 data_value=1
molecule=CCOC(=O)/C(C#N)=C\c1ccc2c(c1)c1ccccc1n2-c1ccc(C)cc1 data_value=0.09
molecule=CC(C)(C)c1ccc(C2=C(c3ccc(N4c5ccccc5C(C)(C)c5ccccc54)cc3)S(=O)(=O)c3c2sc(-c2ccc(N4c5ccccc5C(C)(C)c5ccccc54)cc2)c3-c2ccc(C(C)(C)C)cc2)cc1 data_value=0.021
molecule=Cc1cc(-c2ccc(-n3c4ccccc4c4ccccc43)cc2)nc(-c2ccc(-n3c4ccccc4c4ccccc43)cc2)n1 data_value=0.59

* * *

# TEST PROTOCOL: photoluminescence quantum yield (fraction); solvent given as SMILES
# EXPERIMENTAL SETUP: in ClCCl
Strictly below 0.0009 in photoluminescence quantum yield: Satisfied. Otherwise: Not satisfied.

molecule=N#Cc1cc(/C=C/c2ccc(/C=C/c3ccc(N(c4ccccc4)c4ccccc4)cc3)c(C#N)c2)ccc1/C=C/c1ccc(N(c2ccccc2)c2ccccc2)cc1 category_label="Not satisfied"
molecule=N#Cc1cnc(-c2c3ccccc3c(-c3ccccc3)c3ccccc23)nc1 category_label=Satisfied
molecule=CCN(CC)c1ccc2c(C#N)c(/C=C(\C#N)c3nc4ccccc4o3)c(=O)oc2c1 category_label="Not satisfied"
molecule=C[Si]1(C)O[Si](C)(C)c2cc3nc4ccccc4c(-c4ccccc4)c3cc2[Si](C)(C)O1 category_label="Not satisfied"
molecule=COC(=O)C1=C(C(=O)OC)C2(c3ccccc3-c3ccccc32)[C@@H](c2ccc([N+](=O)[O-])cc2)C=C2c3cc(OC)c(OC)cc3CCN21 category_label=Satisfied
molecule=C[Si]1(C)c2ccc(-c3ccc(N(c4ccccc4)c4ccccc4)cc3)cc2C=Cc2cc(-c3ccc(N(c4ccccc4)c4ccccc4)cc3)ccc21 category_label="Not satisfied"

* * *

# photoluminescence quantum yield per record follows
# TEST PROTOCOL: photoluminescence quantum yield (fraction); solvent given as SMILES
# EXPERIMENTAL SETUP: in ClCCl
METRIC NAME: photoluminescence quantum yield

molecule=COc1ccc(-c2nc3ccccc3nc2/C=C/N2CCCC2)s1 data_value=0.19
molecule=F[B-]1(F)n2cccc2C(c2ccccc2)=C2C=CC=[N+]21 data_value=0.74
molecule=CC[B-]1(CC)c2cccc3cc4ccccc4c(c23)-c2cccc(C)[n+]21 data_value=0.202
molecule=CC(C)(C)c1ccc(-c2cnc3cccc(-c4ccccc4)n23)cc1 data_value=0.31
molecule=CCCCCCN1C(=O)c2cccc3c(-c4ccc(-c5cc(-c6cccc7ccccc67)nn5-c5ccccc5)s4)ccc(c23)C1=O data_value=0.16

* * *

# TEST PROTOCOL: photoluminescence quantum yield (fraction); solvent given as SMILES
# EXPERIMENTAL SETUP: in CC#N
Values of photoluminescence quantum yield greater than or equal to 0.5 map to t; values below map to f.

molecule=CSc1sc(C(N)=O)c2nnn(C)c(=O)c12 category_label=f
molecule=Cc1cc(C)n2c1C=C1c3ccccc3C(c3c[nH]c4ccccc34)=[N+]1[B-]2(F)F category_label=t
molecule=Nc1ccc2c(c1)Cc1ccccc1-2 category_label=t
molecule=F[B-]1(F)n2cccc2C=C2c3ccccc3C(c3ccc[nH]3)=[N+]21 category_label=t
molecule=CCN(CC)c1ccc2c(-c3ccc(S(=O)(=O)[O-])cc3S(=O)(=O)[O-])c3ccc(=[N+](CC)CC)cc-3oc2c1 category_label=t
molecule=C[n+]1cc2ccc3c[n+](C)c4ccccc4c3c2c2ccccc21 category_label=f
molecule=c1ccc(Nc2nc(Nc3ccccc3)nc(Nc3ccc4c5cccc6cccc(c7cccc3c74)c65)n2)cc1 category_label=f
molecule=CCCn1c2cccc3oc4cccc5c4[c+](c32)c2c1cccc2n5CCC category_label=f
molecule=O=[N+]([O-])c1ccc(/C=C/c2cn(S(=O)(=O)c3ccccc3)c3ccccc23)cc1 category_label=f
molecule=Cc1cccc2nc3c(=O)[nH]c(=O)[nH]c3nc12 category_label=f

* * *

# photoluminescence quantum yield per record follows
# TEST PROTOCOL: photoluminescence quantum yield (fraction); solvent given as SMILES
# EXPERIMENTAL SETUP: in CN(C)C=O
METRIC NAME: photoluminescence quantum yield

molecule=CCCCCCOc1ccc(N(c2ccc(OCCCCCC)cc2)c2ccc(-c3sc(-c4ccc(N(c5ccc(OCCCCCC)cc5)c5ccc(OCCCCCC)cc5)cc4)c4nc(-c5ccc(C(=O)OC)cc5)c(-c5ccc(C(=O)OC)cc5)nc34)cc2)cc1 metric_name="photoluminescence quantum yield" data_value=0.021
molecule=COc1cc(N(c2ccccc2)c2ccc(C=C(C#N)C#N)c(OC)c2)ccc1C=C(C#N)C#N metric_name="photoluminescence quantum yield" data_value=0.073
molecule=C#CCNC1=C2C=CC=[N+]2[B-](F)(F)n2cccc21 metric_name="photoluminescence quantum yield" data_value=0.442
molecule=COc1ccc(/C=C/C(=O)c2ccccc2O)cc1OC metric_name="photoluminescence quantum yield" data_value=0.36
molecule=[C-]#[N+]c1ccc(-c2ccc(N)cc2)cc1 metric_name="photoluminescence quantum yield" data_value=0.78
molecule=CN1c2ccc(C(=O)c3ccccc3)cc2Sc2cc(C(=O)c3ccccc3)ccc21 metric_name="photoluminescence quantum yield" data_value=0.18
molecule=CCn1c2ccccc2c2cc(/C=C3\C(=O)c4ccccc4S3(=O)=O)ccc21 metric_name="photoluminescence quantum yield" data_value=0.033
molecule=C#CCN1C(=O)/C(=C/c2cc(OC(C)C)ccc2OC(C)C)N=C1C metric_name="photoluminescence quantum yield" data_value=0.171
molecule=O=C1c2ccc3c4ccc5c6c(ccc(c7ccc(c2c37)C(=O)N1c1ccc(Cl)cc1)c64)C(=O)N(c1ccc(Cl)cc1)C5=O metric_name="photoluminescence quantum yield" data_value=0.84

* * *

# TEST PROTOCOL: photoluminescence quantum yield (fraction); solvent given as SMILES
# EXPERIMENTAL SETUP: in C1COCCO1
# photoluminescence quantum yield per record follows
METRIC NAME: photoluminescence quantum yield

compound=CCn1c2ccccc2c2cc(/C=C3\C(=O)c4ccccc4S3(=O)=O)ccc21 data_value=0.025
compound=CCCCCCCN1C(=CC2=C([O-])C(=Cc3sc4ccccc4[n+]3CCCCCCC)C2=C(C#N)C#N)Sc2ccccc21 data_value=0.09
compound=CCC1=C(C2=C(C3=C(CC)S(=O)(=O)c4cc(-c5ccc(CO)cc5)ccc43)C(F)(F)C(F)(F)C2(F)F)c2ccc(-c3ccc(CO)cc3)cc2S1(=O)=O data_value=0
compound="CCC12C(=C3C(=C4c5ccc(-c6ccc(C(C)=O)s6)cc5S(=O)(=O)C41CC)C(F)(F)C(F)(F)C3(F)F)c1ccc(-c3ccc(C(C)=O)s3)cc1S2(=O)=O (stereo not drawn)" data_value=0.61
compound=CN(C)c1ccc(/C=C/c2nc3c4ccccc4c4ccccc4c3[nH]2)cc1 data_value=0.176
compound=CC1(C)c2ccccc2N(c2ccc(S(=O)(=O)c3ccc(N4c5ccccc5C(C)(C)c5ccccc54)cc3)cc2)c2ccccc21 data_value=0.8
compound=c1ccc(Nc2nc(Nc3ccccc3)nc(Nc3ccc4c5cccc6cccc(c7cccc3c74)c65)n2)cc1 data_value=0.52
compound=c1ccc(-c2nc(-c3nc(-c4ccccc4)c(-c4ccccc4)o3)oc2-c2ccccc2)cc1 data_value=0.57
compound=Nc1ccc2c(c1)Cc1ccccc1-2 data_value=0.73
compound=Cc1nn(-c2ccccc2)c(C2=NN(c3ccc(Br)cc3)[C@@H](c3ccccc3)[C@@H]2c2ccccc2)c1C#N data_value=0.6
compound=c1ccc(-c2nc(-c3ccc(-c4ccc(-c5nc(-c6ccccc6)c(-c6ccccc6)o5)cc4)cc3)oc2-c2ccccc2)cc1 data_value=0.74
compound=CC(C)CCC[C@@H](C)[C@H]1CC[C@H]2[C@@H]3CC=C4C[C@@H](OC(=O)Oc5cc(/C=C/c6ccc(N(C)C)cc6)ccc5[N+](=O)[O-])CC[C@]4(C)[C@H]3CC[C@]12C data_value=0.09
compound=[C-]#[N+]c1ccc(-c2ccc(N)cc2)cc1 data_value=0.79
compound=CN(C)c1ccc(/C=C/C=C/c2ccc([N+](=O)[O-])c(O)c2)cc1 data_value=0.03
compound=CN(C)c1ccc(C2=Cc3c4ccccc4cc[n+]3[B-](F)(F)O2)cc1 data_value=0.863
compound=CCOC(=O)c1sc2nc(-c3ccccc3)c(C)c(C#N)c2c1N data_value=0.024
compound=COC(=O)c1ccc(/C=C2\C=C(c3ccccc3)OC2=O)cc1 data_value=0.007
compound=CCCCN1c2ccccc2Sc2cc(/C=C/c3nc4nc5ccccc5nc4s3)ccc21 data_value=0.07
compound=C(/C=C/c1ccc(N(c2ccccc2)c2ccccc2)cc1)=C\c1ccncc1 data_value=0.3
compound=COC(=O)c1ccc(/C=C2\N=C(c3ccc([N+](=O)[O-])cc3)NC2=O)cc1 data_value=0.258
compound=Cc1ccc(C2=C3C=CC(/C=C/c4ccccc4)=[N+]3[B-](F)(F)n3c(Cl)ccc32)cc1 data_value=0.6
compound=F[B-]1(F)n2c(-c3ccccc3)cnc2-c2cccc[n+]21 data_value=0.24
compound=COc1ccc(/C=C/C(=O)c2ccccc2O)cc1OC data_value=0.072
compound="NS(=O)(=O)c1ccc(N2N=C(c3ccc(O)cc3)CC2c2ccc([N+](=O)[O-])cc2)cc1 (stereo not drawn)" data_value=0.01
compound=O=C1/C(=C2\Sc3ccc(S(=O)(=O)Nc4ccccc4)cc3C2=O)Sc2ccc(S(=O)(=O)Nc3ccccc3)cc21 data_value=0.358
compound=Cc1cccc2nc3c(=O)[nH]c(=O)[nH]c3nc12 data_value=0.033
compound=Cc1ccc(-c2ccc(/C=C/c3cccn3C)cn2)nc1 data_value=0.25
compound=Nc1ccc2c3cccc4cccc(c5cccc1c52)c43 data_value=0.28
compound=CN(C)c1ccc(/C=C2\CC/C(=C\c3ccc(N(C)C)cc3)C2=O)cc1 data_value=0.08
compound=O=Cc1cc(C=O)c2ccc3c(N4CCCCC4)cc(N4CCCCC4)c4ccc1c2c43 data_value=0.92
compound=CN(C)c1ccc(C#Cc2ccc(C=O)cc2)cc1 data_value=0.254
compound=C#CCN1C(=O)/C(=C/c2cc(OC(C)C)ccc2OC(C)C)N=C1C data_value=0.108
compound=COc1ccc(C2=C/C(=C\c3ccccc3)C(=O)O2)cc1OC data_value=0.004
compound=Cc1oc2c(Cl)cc3c(C)cc(=O)oc3c2c1C data_value=0.003
compound=COc1ccc(/C=C/C2=NC(=C\c3ccncc3)/C(=O)N2C)cc1 data_value=0.005
compound=O=c1oc2ccccc2cc1-c1nc2ccccc2o1 data_value=0.84
compound=CCN(CC)c1ccc2cc(/C=C/C3=C4CC/C(=C\c5cc6ccc(N(CC)CC)cc6oc5=O)C4=[O+][B-](F)(F)O3)c(=O)oc2c1 data_value=0.3
compound=CCC(=O)c1ccc2cc(N(C)C)ccc2c1 data_value=0.61
